Origin of values: ChEMBL document CHEMBL1140374

# Subject of test: Glutamate receptor ionotropic AMPA (Homo sapiens, UniProt P42261+P42262+P42263+P48058)
# Assay protocol: Percent inhibition against AMPA receptor at 1 uM
# Type: protein-complex assay
pIC50: −log10 of the molar value.
Measured endpoint: pIC50

- Molecular string: "O=C(O)[C@@H]1C[C@H](CP(=O)(O)O)CCN1"
  Quantitative readout: 6.01

* * *

Target chain: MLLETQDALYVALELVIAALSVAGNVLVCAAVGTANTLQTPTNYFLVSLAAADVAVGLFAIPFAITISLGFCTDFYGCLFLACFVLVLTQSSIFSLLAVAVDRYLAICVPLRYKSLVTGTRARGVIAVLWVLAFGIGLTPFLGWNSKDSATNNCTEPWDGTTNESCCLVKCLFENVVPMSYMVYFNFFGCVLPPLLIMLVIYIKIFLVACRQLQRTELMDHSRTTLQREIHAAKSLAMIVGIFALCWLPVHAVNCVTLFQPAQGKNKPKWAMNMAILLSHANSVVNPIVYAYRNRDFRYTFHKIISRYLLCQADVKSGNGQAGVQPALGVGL
pKi: −log10 of the molar value.
Measured endpoint: pKi

- Molecular string: "Cn1c(-n2nccn2)nc2c(N)nccc21"
  Measured endpoint: "pKi"
  Quantitative readout: 6.29
- Molecular string: "CCCCc1nc(N)c2nc(-n3nccn3)n(C)c2n1"
  Measured endpoint: "pKi"
  Quantitative readout: 6.45
- Molecular string: "Cc1cc2c(nc(-n3nccn3)n2C)c(N)n1"
  Measured endpoint: "pKi"
  Quantitative readout: 6.85
- Molecular string: "CCCc1nc(N)c2nc(-n3nccn3)n(C)c2n1"
  Measured endpoint: "pKi"
  Quantitative readout: 7.74

* * *

# Subject of test: UniProt Q16572
# Sequence (Q16572 whole entry): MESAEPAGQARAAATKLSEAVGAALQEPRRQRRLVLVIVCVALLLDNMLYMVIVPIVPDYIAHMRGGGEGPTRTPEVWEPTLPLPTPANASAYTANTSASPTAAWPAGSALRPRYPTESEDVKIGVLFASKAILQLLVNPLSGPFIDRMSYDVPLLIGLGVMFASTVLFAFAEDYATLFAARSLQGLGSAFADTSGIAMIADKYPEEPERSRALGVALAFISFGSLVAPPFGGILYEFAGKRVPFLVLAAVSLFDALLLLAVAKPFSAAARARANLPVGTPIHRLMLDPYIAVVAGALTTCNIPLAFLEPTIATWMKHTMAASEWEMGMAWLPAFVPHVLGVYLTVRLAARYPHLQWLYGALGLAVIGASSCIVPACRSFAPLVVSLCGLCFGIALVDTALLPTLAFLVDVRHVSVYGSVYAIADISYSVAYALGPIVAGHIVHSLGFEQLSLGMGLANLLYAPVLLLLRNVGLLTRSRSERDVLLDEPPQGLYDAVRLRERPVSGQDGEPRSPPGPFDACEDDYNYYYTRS
pIC50: −log10 of the molar value.

- Compound: "C[N+]1(C)CCOC(O)(c2ccc(-c3ccc(C4(O)C[N+](C)(C)CCO4)cc3)cc2)C1 (stereo unspecified)"
  pIC50: 7.92

* * *

Reported Ki by item:
Target protein (sequence): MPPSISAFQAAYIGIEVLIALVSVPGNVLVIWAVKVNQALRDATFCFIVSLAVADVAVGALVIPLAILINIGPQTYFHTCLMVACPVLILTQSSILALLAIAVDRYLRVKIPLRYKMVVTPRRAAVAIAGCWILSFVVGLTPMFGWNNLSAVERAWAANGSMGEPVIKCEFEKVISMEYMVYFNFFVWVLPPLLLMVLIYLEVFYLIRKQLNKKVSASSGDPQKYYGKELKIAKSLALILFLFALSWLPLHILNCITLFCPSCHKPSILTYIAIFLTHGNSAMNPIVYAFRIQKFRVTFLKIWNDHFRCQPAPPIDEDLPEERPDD
Measured endpoint: Ki (nM)

- Molecular string: "CCCc1nc(N)c2nc(-n3nccn3)n(C)c2n1"
  Value operator: "="
  Quantitative readout: 266
- Molecular string: "CCn1c(=O)c2c(nc(/C=C/c3ccc(OC)c(OC)c3)n2C)n(CC)c1=O"
  Value operator: ">"
  Quantitative readout: 1000
- Molecular string: "Cc1cc2c(nc(-n3nccn3)n2C)c(N)n1"
  Value operator: "="
  Quantitative readout: 340
- Molecular string: "CC(C)c1nc(N)c2nc(-n3nccn3)n(C)c2n1"
  Value operator: "="
  Quantitative readout: 2270
- Molecular string: "Cc1nc(N)c2nc(-n3nccn3)n(C)c2n1"
  Value operator: "="
  Quantitative readout: 10.4
- Molecular string: "Cn1c(-n2nccn2)nc2c(N)nccc21"
  Value operator: "="
  Quantitative readout: 1060
- Molecular string: "CCCCc1nc(N)c2nc(-n3nccn3)n(C)c2n1"
  Value operator: "="
  Quantitative readout: 71.8
